# SUBJECT OF TEST: T1, mouse tissue factor pathway inhibitor (TFPI) (mouse, UniProt O54819 29-289, limits assumed)
# T1 construct: bought; also called mTFPI; murine TFPI
# T1 sequence (looked up): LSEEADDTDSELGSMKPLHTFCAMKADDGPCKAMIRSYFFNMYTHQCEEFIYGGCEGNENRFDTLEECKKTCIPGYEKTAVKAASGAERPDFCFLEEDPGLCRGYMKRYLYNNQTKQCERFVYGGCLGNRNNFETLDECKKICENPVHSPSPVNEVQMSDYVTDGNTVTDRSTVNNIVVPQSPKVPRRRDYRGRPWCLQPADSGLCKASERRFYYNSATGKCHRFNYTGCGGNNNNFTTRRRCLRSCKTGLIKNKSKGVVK
# MEASUREMENT NOTES: equilibrium ELISA
VALUE TYPE: variant/wild-type (ratio)
Give bare numbers, in ratio.

Example binders with recorded variant/wild-type:
4B7 HC_D62Q (Fab, V domains shown) VH: QVQLQQSGPGLVKPSQTLSLTCAISGDSVSSNSAAWSWIRQSPGRGLEWLGIIYKRSKWYNQYAVSVKSRITINPDTSKNQFSLQLNSVTPEDTAVYYCARWHSDKHWGFDYWGQGTLVTVSS VL: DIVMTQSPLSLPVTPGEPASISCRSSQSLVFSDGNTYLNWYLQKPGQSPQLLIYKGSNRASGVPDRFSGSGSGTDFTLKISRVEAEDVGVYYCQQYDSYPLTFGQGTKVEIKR : 142
4B7 LC_S32Y (Fab, V domains shown) VH: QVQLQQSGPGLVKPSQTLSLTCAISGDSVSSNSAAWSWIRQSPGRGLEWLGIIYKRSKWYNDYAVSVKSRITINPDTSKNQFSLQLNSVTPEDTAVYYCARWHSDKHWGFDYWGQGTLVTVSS VL: DIVMTQSPLSLPVTPGEPASISCRSSQSLVFYDGNTYLNWYLQKPGQSPQLLIYKGSNRASGVPDRFSGSGSGTDFTLKISRVEAEDVGVYYCQQYDSYPLTFGQGTKVEIKR : 6.7

// each binder listed below needs its variant/wild-type
1. 4B7 HC_S57K (Fab, V domains shown) VH: QVQLQQSGPGLVKPSQTLSLTCAISGDSVSSNSAAWSWIRQSPGRGLEWLGIIYKRKKWYNDYAVSVKSRITINPDTSKNQFSLQLNSVTPEDTAVYYCARWHSDKHWGFDYWGQGTLVTVSS VL: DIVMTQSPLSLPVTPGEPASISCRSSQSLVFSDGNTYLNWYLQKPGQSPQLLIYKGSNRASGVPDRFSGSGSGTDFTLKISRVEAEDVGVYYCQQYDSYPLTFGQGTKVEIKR
2. 4B7 LC_D97M (Fab, V domains shown) VH: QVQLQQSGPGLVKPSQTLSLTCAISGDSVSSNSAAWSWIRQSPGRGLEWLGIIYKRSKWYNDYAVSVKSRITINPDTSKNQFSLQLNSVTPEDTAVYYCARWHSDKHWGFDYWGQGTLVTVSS VL: DIVMTQSPLSLPVTPGEPASISCRSSQSLVFSDGNTYLNWYLQKPGQSPQLLIYKGSNRASGVPDRFSGSGSGTDFTLKISRVEAEDVGVYYCQQYMSYPLTFGQGTKVEIKR
3. 4B7 HC_H103D (Fab, V domains shown) VH: QVQLQQSGPGLVKPSQTLSLTCAISGDSVSSNSAAWSWIRQSPGRGLEWLGIIYKRSKWYNDYAVSVKSRITINPDTSKNQFSLQLNSVTPEDTAVYYCARWDSDKHWGFDYWGQGTLVTVSS VL: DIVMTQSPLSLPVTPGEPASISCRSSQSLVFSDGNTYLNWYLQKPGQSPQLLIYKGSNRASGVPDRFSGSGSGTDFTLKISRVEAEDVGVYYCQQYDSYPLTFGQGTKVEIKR

Solution:
1. 6.5
2. 1.3
3. 12.9
